- testDescription: log P measured by the procedure of Donovan and Pescatore, internally standardized with toluene and triphenylene
- Type: physicochemical
- cond: pH = 2; based on logP assigned to toluene 2.605 and triphenylene 6.266
readoutKind: logP, Average
Answers are plain numbers.

**Query** Entry Cc1ccc(N(SC(F)(Cl)Cl)S(=O)(=O)N(C)C)cc1 [Tolyfluanid] has what logP, Average?
**Result** 3.934

**Query** Entry CCCN(CCC)c1c([N+](=O)[O-])cc(C(F)(F)F)cc1[N+](=O)[O-] [Trifluran] has what logP, Average?
**Result** 5.108

**Query** Entry N#Cc1c(Cl)c(Cl)c(Cl)c(C#N)c1Cl [Chlorthalonil] has what logP, Average?
**Result** 4.357

Provide logP, Average for all items below, preserving their order.
1. N#CC(CCc1ccc(Cl)cc1)(Cn1cncn1)c1ccccc1 (stereo not shown) [Febenuconazole]
2. CCC(CC)Nc1c([N+](=O)[O-])cc(C)c(C)c1[N+](=O)[O-] [Prowl]
3. C#CCOC(=O)[C@@H](C)Oc1ccc(Oc2ncc(Cl)cc2F)cc1 [Clodinofop-Propargyl]
4. CO/C=C(/C(=O)OC)c1ccccc1Oc1cc(Oc2ccccc2C#N)ncn1 [Azoxystrobin]

**Result**
1: 3.716; 2: 5.108; 3: 4.519; 4: 3.074
